Quick reference: pKd of the listed items.
Assay system: PPARδ (Homo sapiens)
Construct: the reporter is ERE-βGlob-Luc
Sequence (Q03181 171-441 limits assumed): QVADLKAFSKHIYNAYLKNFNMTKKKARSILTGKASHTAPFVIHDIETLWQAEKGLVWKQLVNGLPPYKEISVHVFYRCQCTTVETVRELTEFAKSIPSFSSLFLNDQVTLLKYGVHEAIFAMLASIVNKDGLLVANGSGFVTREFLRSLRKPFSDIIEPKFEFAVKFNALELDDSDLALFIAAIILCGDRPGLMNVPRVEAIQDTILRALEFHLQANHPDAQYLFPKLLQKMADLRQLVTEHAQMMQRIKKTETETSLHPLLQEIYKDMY
Protocol notes: Cross-curve PPAR transactivation test, PPARδ
Experimental conditions: HeLN cells, stable transfectants ERE-βGlob-Luc-SV-Neo and Gal-hPPARδ; luciferase; cross curves against reference agonist, Schild regression; n.a. means not active; read-out: PPARs delta Kd app
pKd: −log10 of the molar value.
Measured quantity: pKd

O=C(N/N=C1\C(=O)N(CCc2ccccc2)c2ccc(SCCc3ccc(C(=O)O)cc3)cc21)Nc1ccccc1 [Example 16] : 5.40
CCCCCCN1C(=O)/C(=N/NC(=O)Nc2ccccc2)c2cc(SCCCc3ccc(C(=O)O)cc3)ccc21 [Example 62] : 6.30
CCCCCCCN1C(=O)/C(=N\NC(=O)Nc2cccc(C(F)(F)F)c2)c2cc(SCCc3ccc(C(=O)O)cc3)ccc21 [Example 20] : 6.30
CCCCCCCN1C(=O)C(=NNC(=O)Nc2ccccc2Cl)c2cc(SCCc3ccc(C(=O)O)cc3)ccc21 [Example 22] : 7.22
CCCCCCN1C(=O)/C(=N/NC(=O)Nc2ccc(F)cc2)c2cc(SCCCc3ccc(C(=O)O)cc3)ccc21 [Example 74] : 6.60
CCCCCCCN1C(=O)/C(=N\NC(=O)Nc2ccccc2Cl)c2cc(SCCc3ccc(C(=O)O)cc3)ccc21 [Example 84] : 7.52
CCCCN1C(=O)/C(=N/NC(=O)Nc2ccccc2)c2cc(SCCc3ccc(C(=O)O)cc3)ccc21 [Example 14] : 6.92
O=C(N/N=C1/C(=O)N(CCc2ccccc2)c2ccc(SCCc3ccc(C(=O)O)cc3)cc21)Nc1ccc(C(F)(F)F)cc1Cl [Example 35] : 6.30
CCCCN1C(=O)/C(=N\NC(=O)Nc2cccc(F)c2)c2cc(SCCc3ccc(C(=O)O)cc3)ccc21 [Example 18] : 6.60

###

Assay system: PPARα (Homo sapiens, UniProt Q07869)
Construct: the reporter is ERE-βGlob-Luc
Sequence (Q07869 200-468 limits assumed): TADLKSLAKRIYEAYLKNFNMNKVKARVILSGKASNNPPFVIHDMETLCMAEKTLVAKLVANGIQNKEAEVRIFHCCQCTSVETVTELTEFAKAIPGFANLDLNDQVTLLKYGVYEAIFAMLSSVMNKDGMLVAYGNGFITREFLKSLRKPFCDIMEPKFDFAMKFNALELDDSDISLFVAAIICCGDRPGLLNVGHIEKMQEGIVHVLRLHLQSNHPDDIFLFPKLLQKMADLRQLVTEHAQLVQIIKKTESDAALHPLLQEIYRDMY
Protocol notes: Cross-curve PPAR transactivation test, PPARα
Experimental conditions: HeLN cells, stable transfectants ERE-βGlob-Luc-SV-Neo and Gal-hPPARα; luciferase; cross curves against reference agonist, Schild regression; n.a. means not active; read-out: PPAR alpha Kd app
Measured quantity: Kd (nM)

COC(=O)c1ccc(CCSc2ccc3c(c2)/C(=N\NC(=O)Nc2cccc(F)c2)C(=O)N3CCc2ccccc2)cc1 [Example 17] : 250
CCCCCCCN1C(=O)/C(=N\NC(=O)Nc2cccc(C(F)(F)F)c2)c2cc(SCCc3ccc(C(=O)O)cc3)ccc21 [Example 20] : 2000
CCCCCCCN1C(=O)/C(=N\NC(=O)Nc2ccccc2Cl)c2cc(SCCc3ccc(C(=O)O)cc3)ccc21 [Example 84] : 500
CCCCCCCN1C(=O)C(=NNC(=O)Nc2ccccc2Cl)c2cc(SCCc3ccc(C(=O)O)cc3)ccc21 [Example 22] : 2000
CCCCN1C(=O)/C(=N/NC(=O)Nc2ccccc2)c2cc(SCCc3ccc(C(=O)O)cc3)ccc21 [Example 14] : 2000
CCCCCCN1C(=O)/C(=N/NC(=O)Nc2ccc(F)cc2)c2cc(SCCCc3ccc(C(=O)O)cc3)ccc21 [Example 74] : 4000
O=C(N/N=C1\C(=O)N(CCc2ccccc2)c2ccc(SCCc3ccc(C(=O)O)cc3)cc21)Nc1ccccc1 [Example 16] : 2000
O=C(N/N=C1/C(=O)N(CCc2ccccc2)c2ccc(SCCc3ccc(C(=O)O)cc3)cc21)Nc1ccc(C(F)(F)F)cc1Cl [Example 35] : 8000
CCCCN1C(=O)/C(=N\NC(=O)Nc2cccc(F)c2)c2cc(SCCc3ccc(C(=O)O)cc3)ccc21 [Example 18] : 2000

###

Assay system: PPARγ (Homo sapiens, UniProt P37231)
Construct: the reporter is ERE-βGlob-Luc
Sequence (P37231 238-505 limits assumed): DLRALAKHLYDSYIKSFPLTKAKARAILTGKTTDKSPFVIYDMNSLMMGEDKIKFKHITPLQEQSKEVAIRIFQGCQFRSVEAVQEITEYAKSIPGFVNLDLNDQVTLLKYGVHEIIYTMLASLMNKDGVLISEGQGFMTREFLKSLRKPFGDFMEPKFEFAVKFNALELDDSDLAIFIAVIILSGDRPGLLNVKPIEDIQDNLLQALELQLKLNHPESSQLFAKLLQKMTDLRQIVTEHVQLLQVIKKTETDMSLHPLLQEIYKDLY
Protocol notes: Cross-curve PPAR transactivation test, PPARγ
Experimental conditions: HeLN cells, stable transfectants ERE-βGlob-Luc-SV-Neo and Gal-hPPARγ; luciferase; cross curves against reference agonist, Schild regression; n.a. means not active; read-out: PPAR gamma Kd app
Description: The activation of the receptors with an agonist (activator) in HeLN cells leads to the expression of a reporter gene, luciferase, which, in the presence of a substrate, generates light. The modulation of the receptors is measured by quantifying the luminescence produced after incubating the cells in the presence of a reference agonist. The ligands displace the agonist from its site. The measurement of the activity is performed by quantifying the light produced. […]
Recorded Kd by entry
Measured quantity: Kd (nM)

CCCCCCN1C(=O)/C(=N/NC(=O)Nc2ccccc2)c2cc(SCCCc3ccc(C(=O)O)cc3)ccc21 [Example 62] : 4000
COC(=O)c1ccc(CCSc2ccc3c(c2)/C(=N\NC(=O)Nc2cccc(F)c2)C(=O)N3CCc2ccccc2)cc1 [Example 17] : 1000
O=C(N/N=C1\C(=O)N(CCc2ccccc2)c2ccc(SCCc3ccc(C(=O)O)cc3)cc21)Nc1ccccc1 [Example 16] : 500
O=C(N/N=C1/C(=O)N(CCc2ccccc2)c2ccc(SCCc3ccc(C(=O)O)cc3)cc21)Nc1ccc(C(F)(F)F)cc1Cl [Example 35] : 250
CCCCCCCN1C(=O)/C(=N\NC(=O)Nc2cccc(C(F)(F)F)c2)c2cc(SCCc3ccc(C(=O)O)cc3)ccc21 [Example 20] : 1000
CCCCCCN1C(=O)/C(=N/NC(=O)Nc2ccc(F)cc2)c2cc(SCCCc3ccc(C(=O)O)cc3)ccc21 [Example 74] : 4000
CCCCCCCN1C(=O)C(=NNC(=O)Nc2ccccc2Cl)c2cc(SCCc3ccc(C(=O)O)cc3)ccc21 [Example 22] : 1000
CCCCN1C(=O)/C(=N\NC(=O)Nc2cccc(F)c2)c2cc(SCCc3ccc(C(=O)O)cc3)ccc21 [Example 18] : 500
CCCCCCCN1C(=O)/C(=N\NC(=O)Nc2ccccc2Cl)c2cc(SCCc3ccc(C(=O)O)cc3)ccc21 [Example 84] : 1000
CCCCN1C(=O)/C(=N/NC(=O)Nc2ccccc2)c2cc(SCCc3ccc(C(=O)O)cc3)ccc21 [Example 14] : 1000
